Each entry below carries its recorded solubility thermodynamic at 24 h.
- Method Description: Thermodynamic solubility of the compound in DPBS after 24 hrs by LC-MS/MS analysis
- Type: physicochemical
- Measurement Parameters: read-out: Therm_solubility
Property Label: solubility thermodynamic at 24 h (µM)

{"Compound": "COCCOc1ccc(NC(=O)N(O)C2N(c3ccc(Cl)cc3)C(=O)N(CC(=O)N/N=C/C=C/c3ccc([N+](=O)[O-])o3)C2(C)C)cc1 (stereo not drawn)", "Result Value": 2.3}
{"Compound": "COCCOc1ccc(N2C(=O)N(CC(=O)N/N=C/C=C/c3ccc([N+](=O)[O-])o3)C(C)(C)C2N(O)C(=O)Nc2ccc(Cl)cc2)cc1 (stereo not drawn)", "Result Value": 2.8}
{"Compound": "COCCOc1ccc(NC(=O)N(O)C2N(c3ccc(OCCOC)cc3)C(=O)N(CC(=O)N/N=C/C=C/c3ccc([N+](=O)[O-])o3)C2(C)C)cc1 (stereo not drawn)", "Result Value": 64.2}
